- measurement_notes: Functional metabolic assay to measure dose dependent changes in cell viability from drug treatment in Vero E6/TMPRSS2 cells (cotreated with P-gp inhibitor, Elacridar). […] Cytotoxicity is reported via measuring absorbance and analysis of MTT/MTS assays in uninfected cells. The assay has been performed by Icahn School of Medicine at Mount Sinai.
- Type: toxicity, cell-based, VeroE6/TMPRSS2
- experimental_parameters: chlorocebus sabaeus, Vero E6/TMPRSS2 cells, with Elacridar (P-gp inhibitor, concentration not stated); p-gp concentration 2 uM
I'd appreciate it if you could supply CC50 values for the items below.

Give its CC50 value. Item: COc1cc(Br)cc(C(=O)Nc2ccc3c(c2)CNC3)c1
> 50 µM

Reported CC50, compound CC[C@@H](Cc1nnn[nH]1)c1ccc(NC(=O)c2cc(Cl)cc(NC(=O)OCc3ccccc3)c2)cc1 : ____
> 50 µM

Recorded CC50 of Cc1cc(CN)cc(NC(=O)c2cc(Cl)cc(NC(=O)OCc3ccccc3)c2)c1 , please.
> 10 µM

// input: 6 compounds below; output: CC50 for each
1. N#C[C@H](Nc1ccc2c(c1)CNC2)c1cc(Cl)cc2[nH]ncc12
2. O=C(Nc1ccc2c(c1)CNC2)c1cc(Br)cc2[nH]c([C@H]3CCOC3)nc12
3. NCc1ccc(-c2ncc(OCC3CCNCC3)nc2-c2ccc(-c3ccoc3)cc2)cc1
4. O=C(Nc1cc(Cl)cc(C(=O)NCc2ccc(-c3nnn[nH]3)cc2)c1)OCc1ccccc1
5. CC(C)CNC(=O)c1cc(Cl)c(F)cc1NS(=O)(=O)c1ccc(Oc2ccccc2Cl)cc1
6. CCOc1cccc(-c2ccc(S(=O)(=O)Nc3cc4c(cc3C(=O)O)CCC4)cc2)c1

["> 50 µM", "26.1 µM", "49.9 µM", "> 50 µM", "49.4 µM", "> 50 µM"]

----------
- measurement_notes: Functional metabolic assay to measure dose dependent changes in cell viability from drug treatment in Vero E6/TMPRSS2 cells (cotreated with P-gp inhibitor, Elacridar). […] Cytotoxicity is reported via measuring absorbance and analysis of MTT/MTS assays in uninfected cells. The assay has been performed by Icahn School of Medicine at Mount Sinai.
- Format: toxicity, cell-based, VeroE6/TMPRSS2
- experimental_parameters: chlorocebus sabaeus, veroe6/tmprss2; p-gp concentration 2 uM
test_readout: CC10

Dear colleague, I am looking for the recorded CC10 of the following compound: O=C(Nc1ccc2c(c1)CNC2)c1cc(Br)cc2[nH]c(C3CCOCC3)nc12
3.442 µM

// for each compound in input: emit CC10
1. N[C@H]1Cc2ccc(NC(=O)c3cc(Cl)cc4[nH]ncc34)cc2C1
2. O=C(Nc1cc(Cl)cc(C(=O)Nc2cc(-c3nnn[nH]3)ccc2F)c1)OCc1ccccc1

1. > 50 µM
2. > 50 µM

----------
- measurement_notes: Functional metabolic assay to measure dose dependent changes in cell viability from drug treatment in Vero E6/TMPRSS2 cells. Cells are treated with antiviral candidates that have been serially diluted. Cytotoxicity is reported via measuring absorbance and analysis of MTT/MTS assays in uninfected cells. The assay has been performed by Icahn School of Medicine at Mount Sinai.
- Type: toxicity, cell-based, VeroE6/TMPRSS2
- experimental_parameters: chlorocebus sabaeus, Vero E6/TMPRSS2 cells
test_readout: CC50

Would you please look over these solved cases?
What measured CC50 goes with COc1cc(N[C@@H](C(=O)c2c[nH]c3ccc(OC(F)(F)F)cc23)c2ccc(Cl)cc2OC)cc(S(C)(=O)=O)c1 ?
> 10 µM

I'd like to know its CC50. The compound in question is CC(C)CNC(=O)c1cc(Cl)ccc1NS(=O)(=O)c1ccc(Oc2ccccc2Cl)cc1
> 50 µM

Next:
What CC50 value was documented for this compound, C[C@@]1(O)[C@H](O)[C@@H](CO)O[C@H]1n1ccc2c(N)ncnc21 [BETA-2'-C-METHYL-7-DEAZA-ADENOSINE] ?
> 10 µM

Data provenance is ChEMBL document CHEMBL5661955.
